System name: hDNMT3a (Homo sapiens, UniProt Q9Y6K1)
Procedure details: Epigenetic enzyme assay, DNA methyltransferases (DNMTs)
Assay type: biochemical
Applied conditions: read-out: Reference IC50
Endpoint name: IC50 (nM)
Kindly answer with a numeric value in nM, unit omitted.

query: Entry `Nc1ncnc2c1ncn2[C@@H]1O[C@H](CSCC[C@H](N)C(=O)O)[C@@H](O)[C@H]1O` needs its IC50 filled in; supply it.
result: 52

----------
System name: JARID1B (h) (Homo sapiens)
Sequence (Q9UGL1 whole entry): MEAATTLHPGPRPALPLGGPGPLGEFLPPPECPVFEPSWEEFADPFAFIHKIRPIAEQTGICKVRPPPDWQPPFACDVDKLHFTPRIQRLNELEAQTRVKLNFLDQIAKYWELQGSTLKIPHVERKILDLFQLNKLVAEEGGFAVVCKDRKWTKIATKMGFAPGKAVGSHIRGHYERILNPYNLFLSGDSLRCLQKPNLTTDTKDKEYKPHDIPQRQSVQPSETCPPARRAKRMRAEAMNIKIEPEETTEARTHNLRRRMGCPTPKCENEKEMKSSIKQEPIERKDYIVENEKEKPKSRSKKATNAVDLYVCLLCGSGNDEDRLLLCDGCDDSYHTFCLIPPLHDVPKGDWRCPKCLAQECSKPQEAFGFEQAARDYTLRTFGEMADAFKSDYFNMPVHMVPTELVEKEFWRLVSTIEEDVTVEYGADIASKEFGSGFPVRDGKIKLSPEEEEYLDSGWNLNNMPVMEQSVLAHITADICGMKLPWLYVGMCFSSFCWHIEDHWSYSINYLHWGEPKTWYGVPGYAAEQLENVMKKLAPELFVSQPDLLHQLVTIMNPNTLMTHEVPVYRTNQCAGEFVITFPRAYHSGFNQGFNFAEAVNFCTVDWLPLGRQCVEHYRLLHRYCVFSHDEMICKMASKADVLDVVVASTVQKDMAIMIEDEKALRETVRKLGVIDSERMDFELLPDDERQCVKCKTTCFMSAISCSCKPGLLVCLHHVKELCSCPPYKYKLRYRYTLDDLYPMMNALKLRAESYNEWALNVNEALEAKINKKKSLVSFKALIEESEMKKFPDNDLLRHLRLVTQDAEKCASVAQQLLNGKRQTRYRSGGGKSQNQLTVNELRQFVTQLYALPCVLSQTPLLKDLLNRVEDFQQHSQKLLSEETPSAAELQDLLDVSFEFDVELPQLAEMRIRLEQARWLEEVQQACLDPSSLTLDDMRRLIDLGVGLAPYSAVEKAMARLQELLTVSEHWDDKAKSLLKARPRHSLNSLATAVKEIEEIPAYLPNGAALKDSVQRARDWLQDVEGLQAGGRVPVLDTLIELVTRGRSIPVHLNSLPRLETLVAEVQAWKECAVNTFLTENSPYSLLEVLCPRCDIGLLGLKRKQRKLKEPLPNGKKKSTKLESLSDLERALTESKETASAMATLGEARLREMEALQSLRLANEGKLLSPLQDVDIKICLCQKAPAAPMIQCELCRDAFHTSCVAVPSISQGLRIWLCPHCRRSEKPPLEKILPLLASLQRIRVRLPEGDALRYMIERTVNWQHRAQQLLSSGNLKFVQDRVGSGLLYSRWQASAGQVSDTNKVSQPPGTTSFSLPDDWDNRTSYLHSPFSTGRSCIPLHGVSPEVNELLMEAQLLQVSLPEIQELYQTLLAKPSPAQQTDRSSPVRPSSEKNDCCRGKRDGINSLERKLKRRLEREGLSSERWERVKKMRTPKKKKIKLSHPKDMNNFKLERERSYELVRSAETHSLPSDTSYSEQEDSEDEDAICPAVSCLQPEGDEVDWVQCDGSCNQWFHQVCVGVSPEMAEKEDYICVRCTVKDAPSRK
Endpoint name: IC50 (µM)
Kindly answer with a numeric value in µM, unit omitted.

query: Please report the measured IC50 for CC(C)=CCC[C@H](CO)[C@@H]1CC[C@@H](C)c2c1cc(C)c(O)c2O [Compound 1, 7,8,18-trihydroxyserrulat-14-ene] tested on JARID1B (h) (Homo sapiens).
result: 3.6

----------
Tested on: 43 cancer cell lines and one normal cell line
Procedure details: In vitro cell viability assay (intracellular ATP, 72 hour)
Type: cell-based
Applied conditions: ACHN (Kidney Cancer); 10 μM
Endpoint name: % Cell growth (%)
Kindly answer with a numeric value in %, unit omitted.

The examples below pair each entry with its known result.
INSERT INTO measurements (compound, endpoint_name, measured_result) VALUES
  ('CC(C)=CCC[C@H](C)[C@@H]1CC[C@@H](C)c2c1cc(C)c(O)c2O [Compound 4, 7,8-dihydroxyserrulat-14-ene]', '% Cell growth', 105),
  ('CC(C)=CCC[C@H](CO)[C@@H]1CC[C@@H](C)c2c1cc(C)c(O)c2O [Compound 1, 7,8,18-trihydroxyserrulat-14-ene]', '% Cell growth', '−41');

query: Entry CC(C)=CCC[C@@H]1COc2c(C)cc(O)c3c2[C@H]1CC[C@H]3C [Compound 3, 5,18-epoxy-8-hydroxyserrulat-14-ene] needs its % Cell growth filled in; supply it.
result: 105

query: Entry CC(C)=CCC[C@@H]1C(O)Oc2c(C)cc(O)c3c2[C@H]1CC[C@H]3C (stereo partly shown) needs its % Cell growth filled in; supply it.
result: 101

----------
System name: NSD1 (h) (Homo sapiens)
Sequence (Q96L73 whole entry): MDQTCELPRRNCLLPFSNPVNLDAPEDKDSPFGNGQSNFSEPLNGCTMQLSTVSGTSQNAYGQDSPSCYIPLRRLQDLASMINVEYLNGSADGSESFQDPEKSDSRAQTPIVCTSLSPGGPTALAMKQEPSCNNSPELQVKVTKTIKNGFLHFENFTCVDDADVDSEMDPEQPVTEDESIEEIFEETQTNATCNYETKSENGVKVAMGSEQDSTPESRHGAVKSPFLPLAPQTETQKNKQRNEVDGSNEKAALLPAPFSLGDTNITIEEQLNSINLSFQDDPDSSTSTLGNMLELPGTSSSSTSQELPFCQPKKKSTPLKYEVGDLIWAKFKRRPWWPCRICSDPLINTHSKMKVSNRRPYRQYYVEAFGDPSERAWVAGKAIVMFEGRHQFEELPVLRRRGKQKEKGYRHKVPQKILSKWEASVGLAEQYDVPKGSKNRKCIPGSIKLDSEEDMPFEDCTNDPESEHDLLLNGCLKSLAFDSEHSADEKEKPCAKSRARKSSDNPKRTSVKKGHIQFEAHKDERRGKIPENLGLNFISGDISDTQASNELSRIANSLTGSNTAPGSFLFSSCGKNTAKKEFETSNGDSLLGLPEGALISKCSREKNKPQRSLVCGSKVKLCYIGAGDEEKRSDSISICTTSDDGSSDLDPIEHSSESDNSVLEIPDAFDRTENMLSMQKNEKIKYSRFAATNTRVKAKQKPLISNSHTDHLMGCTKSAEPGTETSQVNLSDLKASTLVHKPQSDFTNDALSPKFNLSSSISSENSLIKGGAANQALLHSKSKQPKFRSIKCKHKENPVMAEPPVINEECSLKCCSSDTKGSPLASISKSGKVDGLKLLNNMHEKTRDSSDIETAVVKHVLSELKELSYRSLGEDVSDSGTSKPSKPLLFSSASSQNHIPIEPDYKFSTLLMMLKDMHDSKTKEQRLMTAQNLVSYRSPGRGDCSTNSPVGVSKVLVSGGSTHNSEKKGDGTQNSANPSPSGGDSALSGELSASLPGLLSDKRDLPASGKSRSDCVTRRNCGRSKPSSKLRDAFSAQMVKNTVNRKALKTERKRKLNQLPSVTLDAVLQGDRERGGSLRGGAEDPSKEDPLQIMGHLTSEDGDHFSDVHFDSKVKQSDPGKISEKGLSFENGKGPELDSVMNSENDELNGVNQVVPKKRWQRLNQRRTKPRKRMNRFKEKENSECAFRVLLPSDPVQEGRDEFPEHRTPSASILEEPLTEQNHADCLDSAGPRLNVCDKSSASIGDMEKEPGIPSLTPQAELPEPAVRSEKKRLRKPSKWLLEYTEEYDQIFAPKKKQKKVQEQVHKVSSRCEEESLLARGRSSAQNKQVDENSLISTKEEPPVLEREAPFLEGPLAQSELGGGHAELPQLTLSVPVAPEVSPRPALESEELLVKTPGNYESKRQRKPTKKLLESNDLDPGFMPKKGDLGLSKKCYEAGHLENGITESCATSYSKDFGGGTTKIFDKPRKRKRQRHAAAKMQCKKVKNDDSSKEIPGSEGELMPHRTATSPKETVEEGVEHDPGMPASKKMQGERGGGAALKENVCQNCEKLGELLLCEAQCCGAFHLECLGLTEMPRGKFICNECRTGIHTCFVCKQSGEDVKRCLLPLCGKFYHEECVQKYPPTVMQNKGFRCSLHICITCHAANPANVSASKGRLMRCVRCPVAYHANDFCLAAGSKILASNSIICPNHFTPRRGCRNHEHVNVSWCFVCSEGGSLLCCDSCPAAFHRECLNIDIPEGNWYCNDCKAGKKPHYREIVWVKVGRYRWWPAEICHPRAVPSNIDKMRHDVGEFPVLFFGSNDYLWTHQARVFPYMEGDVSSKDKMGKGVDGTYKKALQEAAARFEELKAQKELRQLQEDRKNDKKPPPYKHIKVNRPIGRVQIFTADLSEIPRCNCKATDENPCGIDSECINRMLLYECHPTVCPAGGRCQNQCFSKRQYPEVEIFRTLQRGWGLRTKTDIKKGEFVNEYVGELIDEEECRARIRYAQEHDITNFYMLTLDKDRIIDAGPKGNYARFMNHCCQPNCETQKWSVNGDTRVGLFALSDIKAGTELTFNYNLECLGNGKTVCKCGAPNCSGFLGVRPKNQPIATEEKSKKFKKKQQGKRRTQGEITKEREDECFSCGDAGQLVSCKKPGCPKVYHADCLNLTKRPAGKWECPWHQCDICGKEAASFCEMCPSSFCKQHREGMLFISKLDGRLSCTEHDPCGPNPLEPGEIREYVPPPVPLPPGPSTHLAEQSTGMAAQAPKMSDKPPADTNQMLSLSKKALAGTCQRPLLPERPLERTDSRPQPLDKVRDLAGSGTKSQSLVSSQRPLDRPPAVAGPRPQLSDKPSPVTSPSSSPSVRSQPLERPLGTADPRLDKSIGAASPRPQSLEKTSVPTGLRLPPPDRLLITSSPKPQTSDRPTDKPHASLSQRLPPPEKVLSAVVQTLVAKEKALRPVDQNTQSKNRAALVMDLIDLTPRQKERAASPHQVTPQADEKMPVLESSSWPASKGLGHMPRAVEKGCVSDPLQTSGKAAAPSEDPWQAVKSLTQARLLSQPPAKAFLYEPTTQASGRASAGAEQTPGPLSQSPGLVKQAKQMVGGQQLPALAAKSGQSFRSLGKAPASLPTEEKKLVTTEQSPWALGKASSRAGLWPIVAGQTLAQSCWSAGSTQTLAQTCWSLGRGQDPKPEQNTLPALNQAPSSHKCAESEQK
Procedure details: Epigenetic enzyme assay, Methyltransferases (MTs)
Assay type: biochemical
Applied conditions: Table 10; read-out: Reference IC50
Endpoint name: IC50 (µM)
Kindly answer with a numeric value in µM, unit omitted.

query: Entry CN1C(=O)[C@@]23C[C@]4([C@]56C[C@@]78SS[C@@](CO)(C(=O)N7[C@H]5Nc5ccccc56)N(C)C8=O)c5ccccc5N[C@@H]4N2C(=O)[C@]1(CO)SS3 [chaetocin, reference compound] needs its IC50 filled in; supply it.
result: 0.13

----------
System: 280 human cancer cell lines
Procedure details: OncoPanel cell proliferation assay (10-day)
Assay type: cell-based
Applied conditions: Homo sapiens, NCI-H441, NCIH441, Lung - NSCLC; read-out: Cell Count IC50
pIC50: −log10 of the molar value.
Endpoint name: pIC50

The examples below pair each entry with its known result.
INSERT INTO results (compound, measured_result) VALUES
  ('CC(C)=CCC[C@H](CO)[C@@H]1CC[C@@H](C)c2c1cc(C)c(O)c2O [Compound 1, 7,8,18-trihydroxyserrulat-14-ene]', 4.92),
  ('CC(C)=CCC[C@@H]1C(O)Oc2c(C)cc(O)c3c2[C@H]1CC[C@H]3C (stereo partly drawn)', '< 4.52');

# next compound below
query: Please report the measured pIC50 for CC(C)=CCC[C@H](C)[C@@H]1CC[C@@H](C)c2c1cc(C)c(O)c2O [Compound 4, 7,8-dihydroxyserrulat-14-ene] tested on 280 human cancer cell lines.
result: < 4.52

----------
Tested on: 280 human cancer cell lines
Procedure details: OncoPanel cell proliferation assay (10-day)
Type: cell-based
Applied conditions: Homo sapiens, COLO-320-HSR, Colo 320 HSR, Colon; read-out: Cell Count EC50
Endpoint name: EC50 (µM)
Kindly answer with a numeric value in µM, unit omitted.

INSERT INTO results (compound, measured_result) VALUES
  ('CC(C)=CCC[C@@H]1C(O)Oc2c(C)cc(O)c3c2[C@H]1CC[C@H]3C (stereo partly drawn) [Compound 2, 5,18-epoxyserrulat-14-en-8,18-diol]', 11.6),
  ('CC(C)=CCC[C@H](CO)[C@@H]1CC[C@@H](C)c2c1cc(C)c(O)c2O [Compound 1, 7,8,18-trihydroxyserrulat-14-ene]', 3.09);

# next compound below
query: Entry CC(C)=CCC[C@H](C)[C@@H]1CC[C@@H](C)c2c1cc(C)c(O)c2O [Compound 4, 7,8-dihydroxyserrulat-14-ene] needs its EC50 filled in; supply it.
result: 5.15

----------
Test system: 280 human cancer cell lines
Procedure details: OncoPanel cell proliferation assay (10-day)
Type: cell-based
Applied conditions: Homo sapiens, EM-2, Leukemia; read-out: Cell Count IC50
Endpoint name: pIC50
Interpret pIC50 as the negative base-10 log of the concentration measured in mol/L.

The examples below pair each entry with its known result.
INSERT INTO results (compound, endpoint_name, measured_result) VALUES
  ('CC(C)=CCC[C@H](C)[C@@H]1CC[C@@H](C)c2c1cc(C)c(O)c2O [Compound 4, 7,8-dihydroxyserrulat-14-ene]', 'pIC50', 5.40),
  ('CC(C)=CCC[C@@H]1C(O)Oc2c(C)cc(O)c3c2[C@H]1CC[C@H]3C (stereo partly drawn)', 'pIC50', 4.97);

# next compound below
query: Entry CC(C)=CCC[C@H](CO)[C@@H]1CC[C@@H](C)c2c1cc(C)c(O)c2O [Compound 1, 7,8,18-trihydroxyserrulat-14-ene] needs its pIC50 filled in; supply it.
result: 5.62

----------
Tested on: 280 human cancer cell lines
Procedure details: OncoPanel cell proliferation assay (10-day)
Assay type: cell-based
Applied conditions: Homo sapiens, EB2, Lymphoma; read-out: Cell Count EC50
Endpoint name: EC50
Please state the number and follow it with the unit.

The examples below pair each entry with its known result.
INSERT INTO results (compound, measured_result) VALUES
  ('CC(C)=CCC[C@H](CO)[C@@H]1CC[C@@H](C)c2c1cc(C)c(O)c2O [Compound 1, 7,8,18-trihydroxyserrulat-14-ene]', '6.47 µM'),
  ('CC(C)=CCC[C@H](C)[C@@H]1CC[C@@H](C)c2c1cc(C)c(O)c2O [Compound 4, 7,8-dihydroxyserrulat-14-ene]', '8.35 µM');

# next compound below
query: Entry CC(C)=CCC[C@@H]1C(O)Oc2c(C)cc(O)c3c2[C@H]1CC[C@H]3C (stereo partly drawn) [Compound 2, 5,18-epoxyserrulat-14-en-8,18-diol] needs its EC50 filled in; supply it.
result: 23.3 µM

----------
System name: UniProtKB Q9GZV3
Sequence (Q9GZV3 whole entry): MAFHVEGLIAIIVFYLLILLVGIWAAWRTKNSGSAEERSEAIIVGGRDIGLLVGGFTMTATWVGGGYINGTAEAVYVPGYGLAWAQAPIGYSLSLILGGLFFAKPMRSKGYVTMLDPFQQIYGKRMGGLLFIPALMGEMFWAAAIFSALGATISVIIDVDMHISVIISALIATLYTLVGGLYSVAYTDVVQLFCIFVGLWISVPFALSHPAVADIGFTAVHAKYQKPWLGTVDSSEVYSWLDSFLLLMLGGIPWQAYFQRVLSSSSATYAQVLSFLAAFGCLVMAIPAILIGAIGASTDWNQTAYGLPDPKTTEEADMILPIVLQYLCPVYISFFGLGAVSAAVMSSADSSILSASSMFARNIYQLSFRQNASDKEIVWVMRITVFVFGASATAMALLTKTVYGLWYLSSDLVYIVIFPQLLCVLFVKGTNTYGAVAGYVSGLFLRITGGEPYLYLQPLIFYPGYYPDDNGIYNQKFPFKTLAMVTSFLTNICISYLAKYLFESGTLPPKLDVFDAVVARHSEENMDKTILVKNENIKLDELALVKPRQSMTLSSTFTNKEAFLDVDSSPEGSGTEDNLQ
Endpoint name: pIC50
Interpret pIC50 as the negative base-10 log of the concentration measured in mol/L.

query: Entry C[N+]1(C)CCOC(O)(c2ccc(-c3ccc(C4(O)C[N+](C)(C)CCO4)cc3)cc2)C1 (stereo not shown) needs its pIC50 filled in; supply it.
result: 8.34

----------
// reported IC50 per item
Tested on: 280 human cancer cell lines
Procedure details: OncoPanel cell proliferation assay (10-day)
Type: cell-based
Applied conditions: Homo sapiens, SJRH30, SJRH30, Soft Tissue - Sarcoma; read-out: Cell Count IC50
Kindly answer with a numeric value in µM, unit omitted.

The examples below pair each entry with its known result.
INSERT INTO results (compound, unit_tag, measured_result) VALUES
  ('CC(C)=CCC[C@@H]1C(O)Oc2c(C)cc(O)c3c2[C@H]1CC[C@H]3C (stereo partly drawn)', 'µM', 5.1),
  ('CC(C)=CCC[C@H](C)[C@@H]1CC[C@@H](C)c2c1cc(C)c(O)c2O [Compound 4, 7,8-dihydroxyserrulat-14-ene]', 'µM', 3.68);

# next compound below
query: Entry CC(C)=CCC[C@H](CO)[C@@H]1CC[C@@H](C)c2c1cc(C)c(O)c2O [Compound 1, 7,8,18-trihydroxyserrulat-14-ene] needs its IC50 filled in; supply it.
result: 1.42

----------
// reported pEC50 per item
Test system: 280 human cancer cell lines
Procedure details: OncoPanel cell proliferation assay (10-day)
Assay type: cell-based
Applied conditions: Homo sapiens, SK-OV-3, SKOV3, Female GU - Ovary; read-out: Cell Count EC50
Interpret pEC50 as the negative base-10 log of the concentration measured in mol/L.

INSERT INTO measurements (compound, endpoint_name, measured_result) VALUES
  ('CC(C)=CCC[C@H](CO)[C@@H]1CC[C@@H](C)c2c1cc(C)c(O)c2O [Compound 1, 7,8,18-trihydroxyserrulat-14-ene]', 'pEC50', 5.80),
  ('CC(C)=CCC[C@@H]1C(O)Oc2c(C)cc(O)c3c2[C@H]1CC[C@H]3C (stereo partly drawn)', 'pEC50', 4.81);

# next compound below
query: Entry CC(C)=CCC[C@H](C)[C@@H]1CC[C@@H](C)c2c1cc(C)c(O)c2O [Compound 4, 7,8-dihydroxyserrulat-14-ene] needs its pEC50 filled in; supply it.
result: 5.07
